Assay: ACEA_ER_80hr: ACEA Biosciences xCELLigence Real-Time Cell Analysis on Estrogen Receptor Agonism for Proliferation (AID 2282667)
Conditions: T47D proliferation, impedance (xCELLigence), 80 h
Results filed as inconclusive are left out. Active and inactive are the calls of the source. Rule for the calls: active = hit-call score of the fitted dose curve at least 0.9, where 1 is the maximum; inconclusive = response in the unintended direction; inactive = score below 0.9.
# valid calls are active, inactive; nothing else

Study these solved cases before continuing.
CCCCCCCC1CCCC1=O (stereo not drawn): inactive
CCCCCCCCOC(C)=O: inactive
O=C(C=Cc1ccccc1)OCCCc1ccccc1: inactive
O=S(=O)(O)c1cc(O)c(O)c(S(=O)(=O)O)c1: inactive
CCCCCCCOC(C)=O: inactive

q: Tell me the assay call for "NC(=O)NC(N)=O" please.
a: inactive

----------
Biological target: X-box-binding protein 1 (Homo sapiens)
Experiment: ATG_Xbp1_CIS: Attagene CIS-FACTORIAL HepG2 Assay for human X-box Binding Protein 1 (XBP1) (AID 2282972)
Conditions: HepG2 XBP1 cis-element reporter, Attagene multiplex; actives raise or lower the signal
Activity calls are given as the source filed them. Rule for the calls: active = hit-call score of the fitted dose curve at least 0.9, where 1 is the maximum; inactive = score below 0.9.
QUANTITY_KIND: outcome

Solved cases below.
CCCCCCCCCCCCOCCOS(=O)(=O)O: inactive
CCCc1ccc(N)cc1: inactive
COc1ccc(C(C)=O)cc1: inactive
CC=CC(=O)C1=C(C)C=CCC1(C)C: inactive

q: Suppose we examine the compound "CCC=C(C)C=O" ; what outcome value has been reported?
a: inactive

q: # repeat for "O=C(O)CS"
a: inactive

----------
Assay: ATG_MRE_CIS: Attagene CIS-FACTORIAL HepG2 Assay for human Metal Responsive Element (MRE) (AID 2282954)
Settings: HepG2 MRE cis-reporter transcription, Attagene multiplex; actives raise or lower the signal
The source made the active and inactive calls. Rule for the calls: active = hit-call score of the fitted dose curve at least 0.9, where 1 is the maximum; inactive = score below 0.9.
# valid calls are yes (1) = active, no (0) = inactive; nothing else

Study these solved cases before continuing.
CCOCC(C)O (stereo not given): no (0)
CCCCCC#CC(=O)OC: no (0)
CC(C)COC(=O)c1ccccc1O: no (0)
CC(=O)Nc1cc(S(=O)(=O)O)cc2cc(S(=O)(=O)O)c(N=Nc3ccccc3)c(O)c12: no (0)

q: Tell me the assay call for "OC[C@@H](O)[C@H](O)[C@@H](O)[C@@H](O)CO" please.
a: no (0)

----------
Experiment: ATG_XTT_Cytotoxicity: Cytotoxicity Assessment in the Attagene TRANS-FACTORIAL HepG2 Assay (AID 2283584)
Inconclusive results are not listed. Activity calls are given as the source filed them. The calls were made as follows: active = hit-call score of the fitted dose curve at least 0.9, where 1 is the maximum; inconclusive = response in the unintended direction; inactive = score below 0.9.
# valid calls are y (active), n (inactive); nothing else

CCCCOCCOCCOCCO: n

Query compound follows.
q: Tell me the assay call for C=CC(C)CCCC(C)(C)O (stereo not drawn) please.
a: n

----------
Read-out: Macrophage colony-stimulating factor (MCSF), CSF1 (gene 1435)
Assay: BSK_LPS_MCSF: BioMAP Diversity Plus: LPS Assay for Macrophage colony-stimulating factor (MCSF) Biomarker Activity (AID 2283083)
Details: primary human HUVEC with PBMC; actives raise or lower the signal
Active and inactive are the calls of the source. How the source made its calls: active means hit-call score of the fitted dose curve at least 0.9, where 1 is the maximum; inactive means score below 0.9.
# valid calls are active, inactive; nothing else

Study these solved cases before continuing.
C=C(C)C(=O)OCCC(F)(F)C(F)(F)C(F)(F)C(F)(F)C(F)(F)C(F)(F)C(F)(F)C(F)(F)F: inactive
C=C(C)C(N)=O: inactive

q: Tell me the assay call for "CCn1cc(C(=O)O)c(=O)c2ccc(C)nc21" please.
a: inactive

q: # repeat for "CC(=O)OCC=C(C)CCC=C(C)CCC=C(C)C"
a: inactive

q: # repeat for "NC(=O)c1c(Cl)cccc1Cl"
a: inactive

q: # repeat for CC(C)Cc1ccc(C(C)C(=O)O)cc1 (stereo not drawn)
a: inactive

q: # repeat for "CCCO[Si](OCCC)(OCCC)OCCC"
a: inactive

q: # repeat for "c1ccc2c(c1)-c1ccc3ccc4cccc5cc-2c1c3c45"
a: active

q: # repeat for "CC=CC(=O)C1=C(C)C=CCC1(C)C"
a: inactive

q: # repeat for "CCCCN(CCO)CCO"
a: inactive

q: # repeat for "CCOC(=O)C=Cc1ccccc1"
a: inactive

q: # repeat for "C#C[C@]1(O)CC[C@H]2[C@@H]3CCc4cc(O)ccc4[C@H]3CC[C@@]21C"
a: inactive

q: # repeat for "CC(C)CCCC(C)(C)O"
a: inactive
